The following compounds are listed with their measured pIC50 values.
experimental system: phosphorylated ERBB2 (pERBB2) (Homo sapiens (Human), UniProt P04626)
Sequence (P04626 23-1255): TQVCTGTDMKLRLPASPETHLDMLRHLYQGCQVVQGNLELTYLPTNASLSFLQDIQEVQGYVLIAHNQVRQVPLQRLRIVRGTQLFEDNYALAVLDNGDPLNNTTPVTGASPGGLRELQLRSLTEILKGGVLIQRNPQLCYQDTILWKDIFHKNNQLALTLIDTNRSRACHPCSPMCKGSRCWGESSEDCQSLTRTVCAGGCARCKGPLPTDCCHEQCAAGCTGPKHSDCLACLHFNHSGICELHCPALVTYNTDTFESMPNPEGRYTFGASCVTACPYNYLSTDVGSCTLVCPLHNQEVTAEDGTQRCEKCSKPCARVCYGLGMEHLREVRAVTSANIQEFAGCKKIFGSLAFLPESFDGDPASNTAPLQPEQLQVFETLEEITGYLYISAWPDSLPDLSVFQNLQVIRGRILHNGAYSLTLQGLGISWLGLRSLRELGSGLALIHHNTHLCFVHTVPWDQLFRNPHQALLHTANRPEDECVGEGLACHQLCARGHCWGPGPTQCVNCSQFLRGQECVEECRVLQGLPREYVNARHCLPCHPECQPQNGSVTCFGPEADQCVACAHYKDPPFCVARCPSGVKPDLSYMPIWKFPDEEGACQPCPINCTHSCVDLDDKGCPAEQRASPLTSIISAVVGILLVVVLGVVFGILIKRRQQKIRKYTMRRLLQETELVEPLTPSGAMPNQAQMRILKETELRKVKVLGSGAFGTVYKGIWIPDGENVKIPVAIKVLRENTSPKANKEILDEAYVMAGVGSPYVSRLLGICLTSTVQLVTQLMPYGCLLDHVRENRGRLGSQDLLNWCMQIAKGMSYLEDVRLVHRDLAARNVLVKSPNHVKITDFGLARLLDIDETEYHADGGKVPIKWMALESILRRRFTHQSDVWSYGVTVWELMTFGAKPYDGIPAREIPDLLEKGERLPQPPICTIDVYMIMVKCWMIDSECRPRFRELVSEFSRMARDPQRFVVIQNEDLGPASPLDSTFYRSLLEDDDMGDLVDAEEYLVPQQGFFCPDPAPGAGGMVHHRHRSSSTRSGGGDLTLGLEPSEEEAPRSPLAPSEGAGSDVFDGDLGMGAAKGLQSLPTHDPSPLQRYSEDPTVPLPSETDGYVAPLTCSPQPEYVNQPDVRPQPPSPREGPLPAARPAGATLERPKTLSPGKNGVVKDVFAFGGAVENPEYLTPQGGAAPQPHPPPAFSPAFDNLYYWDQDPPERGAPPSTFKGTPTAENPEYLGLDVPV
assay details: Detection of phosphorylated ERBB2 (pERBB2) by ELISA in BT-474 cells
measurement setup: four hours incubation with compound
The read-out pIC50 is expressed as -log10 of concentration in moles per litre.

{"compound": "Cc1cc(Nc2ncnc3cc4c(nc23)N2CCCN(C(=O)/C=C/CN(C)C)C(CO4)C2)ccc1Oc1ccn2ncnc2c1 (single isomer, unassigned) [Example S55, Enantiomer 2]", "pIC50": 6.52}
{"compound": "[2H]C([2H])([2H])N(C/C=C/C(=O)N1CCN2C[C@H]1COc1cc3ncnc(Nc4ccc(Oc5ccn6ncnc6c5)c(C)c4)c3nc12)C([2H])([2H])[2H] [Compound 36, formic acid]", "pIC50": 8.00}

Okay, now this compound:
Ask: Read the entry Cc1cc(Nc2ncnc3cc4c(nc23)N2CCCN(C(=O)/C=C/CN(C)C)C(CO4)C2)ccc1Oc1ccn2ncnc2c1 (single isomer, unassigned) [Example S55, Enantiomer 1] and write its reported pIC50.
Reply: 7.76
